Molecular target: LmrCD (Lactococcus cremoris, UniProt A2RI37+A2RI38, A2RI37:C179R)
Sequence (A2RI37 entry or part of it C179R): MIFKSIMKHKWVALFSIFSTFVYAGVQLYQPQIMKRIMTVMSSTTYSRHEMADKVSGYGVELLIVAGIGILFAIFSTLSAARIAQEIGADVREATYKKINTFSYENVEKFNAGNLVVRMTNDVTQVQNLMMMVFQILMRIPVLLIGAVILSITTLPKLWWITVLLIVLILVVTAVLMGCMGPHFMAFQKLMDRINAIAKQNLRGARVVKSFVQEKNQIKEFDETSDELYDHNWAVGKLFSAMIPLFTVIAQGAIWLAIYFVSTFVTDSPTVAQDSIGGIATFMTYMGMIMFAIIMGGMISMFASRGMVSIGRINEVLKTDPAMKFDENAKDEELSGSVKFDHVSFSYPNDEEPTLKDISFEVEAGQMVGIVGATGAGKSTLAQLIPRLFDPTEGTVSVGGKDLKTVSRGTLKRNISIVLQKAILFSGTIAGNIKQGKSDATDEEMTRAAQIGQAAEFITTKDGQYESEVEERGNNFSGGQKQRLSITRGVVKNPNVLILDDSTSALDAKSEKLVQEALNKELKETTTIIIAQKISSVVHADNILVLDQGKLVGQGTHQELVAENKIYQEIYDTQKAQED
Sequence (A2RI38 entry or part of it): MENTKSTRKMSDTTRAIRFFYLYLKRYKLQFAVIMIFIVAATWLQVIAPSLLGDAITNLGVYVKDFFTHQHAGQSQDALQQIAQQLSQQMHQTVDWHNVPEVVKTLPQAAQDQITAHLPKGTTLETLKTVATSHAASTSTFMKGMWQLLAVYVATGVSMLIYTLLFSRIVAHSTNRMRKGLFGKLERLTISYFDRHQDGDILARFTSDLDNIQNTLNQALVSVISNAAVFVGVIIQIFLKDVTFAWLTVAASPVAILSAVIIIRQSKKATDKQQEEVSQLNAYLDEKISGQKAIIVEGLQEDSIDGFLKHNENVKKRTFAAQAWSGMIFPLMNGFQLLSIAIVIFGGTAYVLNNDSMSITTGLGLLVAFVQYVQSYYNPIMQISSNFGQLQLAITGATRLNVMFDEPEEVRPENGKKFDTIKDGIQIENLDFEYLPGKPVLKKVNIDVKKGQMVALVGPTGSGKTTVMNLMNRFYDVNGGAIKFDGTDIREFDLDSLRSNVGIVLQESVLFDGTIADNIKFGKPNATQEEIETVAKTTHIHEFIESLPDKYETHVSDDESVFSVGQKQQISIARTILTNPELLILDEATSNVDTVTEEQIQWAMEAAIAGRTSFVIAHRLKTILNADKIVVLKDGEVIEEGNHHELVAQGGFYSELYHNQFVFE
Test: biochemical
ASSAY READOUT: IC50 (µM)
Form entry: value (µM) — number only.

INPUT: Please respond with reported IC50 (system LmrCD (Lactococcus cremoris, UniProt A2RI37+A2RI38, A2RI37:C179R)) for [O]=[V]([OH])([OH])[OH] [orthovanadate] .
OUTPUT: 120

// provenance: paper PMC3366976
